- Assay text: Plasma Cmax in rat (PO dose)
- Type: ADME, organism-based
- Set-up: route oral
I'd appreciate it if you could supply Cmax values for the items below.
Answer with a number only, understood to be in µM.

Cmax in this record for COc1cccc(N2CCNC(=O)N2)c1 : 72

get_value(item= Cc1ccc(N2CCNC(=O)N2)cc1 , readout=Cmax) returns 105

# Cmax (molecule: Cc1ccccc1N1CCNC(=O)N1 ) is 78

Consider CC1CN(c2cccc(Cl)c2)NC(=O)N1 (centres undefined) . Its measured Cmax is 31

get_value(item= Nc1cccc(N2CCNC(=O)N2)c1 , readout=Cmax) returns 95

The molecule listed as Cc1cc(C)cc(N2CCNC(=O)N2)c1 shows Cmax equal to 20

Lab note: measured Cmax of O=C1NCCN(c2cc(F)cc(F)c2)N1 was 64

The molecule listed as CCc1cccc(N2CCNC(=O)N2)c1 shows Cmax equal to 32

// sample CC(C)C1CN(c2ccccc2)NC(=O)N1 (centres undefined) , its Cmax was 48

Reported Cmax for O=C1NCCN(c2cccc(Cl)n2)N1 was 122

// Cmax value for CC1CN(c2cccc(-c3ccco3)c2)NC(=O)N1 (centres undefined) : 7

Record O=C1NCCN(c2ccnc3cc(Cl)ccc23)N1 , field Cmax: 85

Entry Cc1cccc(N2CCNC(=O)N2)c1 ; Cmax = 98

Per the record, O=C1NCCN(c2cnc3ccccc3c2)N1 has Cmax of 58

Values from ChEMBL document CHEMBL1129426
